Some compounds, each annotated with its measured IC50.
- tested_system: KRAS G13C (Homo sapiens, UniProt P01116+P62937, G13C)
- Sequence (P01116 1-169 isoform P01116-2 G13C): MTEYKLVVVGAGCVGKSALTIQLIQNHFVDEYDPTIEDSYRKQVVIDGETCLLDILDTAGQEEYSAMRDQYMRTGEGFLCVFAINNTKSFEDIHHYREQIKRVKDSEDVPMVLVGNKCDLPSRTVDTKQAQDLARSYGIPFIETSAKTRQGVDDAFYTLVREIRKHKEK
- Sequence (P62937 whole entry): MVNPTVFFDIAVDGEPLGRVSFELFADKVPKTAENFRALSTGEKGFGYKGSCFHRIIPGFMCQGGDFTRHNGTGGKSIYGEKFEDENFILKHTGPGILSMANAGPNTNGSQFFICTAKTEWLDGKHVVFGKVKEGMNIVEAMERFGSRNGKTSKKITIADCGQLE
- test_details: Disruption of BRAF RBD interaction with Ras (FRET / MOA assay, with Cyclophilin A)
- Assay type: biochemical
- condition_summary: KRAS G13C; read-out: KRAS G13C FRET data IC50
value_kind: IC50

| substance_smiles | result |
| --- | --- |
| C=CC(=O)N1CC[C@H](C(=O)N(C)[C@H](C(=O)N[C@H]2Cc3cc(O)cc(c3)-c3ccc4c(c3)c(c(-c3ccnc5c3[C@@H](OC)CC5)n4CC)CC(C)(C)COC(=O)[C@@H]3CCCN(N3)C2=O)C(C)C)C1 | 10 to 100 nM |
| CO[C@@H](COC1CN(C(=O)C#CC(C)(C)N(C)C)C1)C(=O)N[C@H]1Cc2cccc(c2)-c2ccc3c(c2)c(c(-c2cccnc2[C@H](C)OC)n3CC(F)(F)F)CC(C)(C)COC(=O)[C@@H]2CCCN(N2)C1=O | 1000 to 10000 nM |

====

Documented IC50 across a set of compounds
- tested_system: NRAS G12C (Homo sapiens, UniProt P01111+P62937, G12C)
- Sequence (P01111 whole entry G12C): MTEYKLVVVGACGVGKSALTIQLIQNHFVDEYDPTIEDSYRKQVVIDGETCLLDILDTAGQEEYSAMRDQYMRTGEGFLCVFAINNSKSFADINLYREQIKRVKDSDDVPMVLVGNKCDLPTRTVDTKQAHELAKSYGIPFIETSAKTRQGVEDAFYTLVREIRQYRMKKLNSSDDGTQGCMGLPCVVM
- Sequence (P62937 whole entry): as the sequence (P62937 whole entry) above
- test_details: Disruption of BRAF RBD interaction with Ras (FRET / MOA assay, with Cyclophilin A)
- Type: biochemical
- condition_summary: NRAS G12C; read-out: NRAS G12C FRET data IC50
value_kind: IC50

| compound | result |
| --- | --- |
| CCn1c(-c2cccnc2[C@H](C)OC)c2c3cc(ccc31)-c1csc(n1)C[C@H](NC(=O)[C@H](C1CCCC1)N(C)C(=O)N1CCN(C)CC1)C(=O)N1CCC[C@H](N1)C(=O)OCC(C)(C)C2 | 100 to 1000 nM |
| C=CC(=O)N1CCC[C@H]2CN(C(=O)N(C)[C@H](C(=O)N[C@H]3Cc4nc(cs4)-c4ccc5c(c4)c(c(-c4cccnc4[C@H](C)OC)n5CC)CC(C)(C)COC(=O)C4CCCN(N4)C3=O)C(C)C)C[C@H]21 (some centres unmarked) | 100 to 1000 nM |

====

- tested_system: KRAS G12V (Homo sapiens, UniProt P01116+P62937, G12V)
- Sequence (P01116 1-169 isoform P01116-2 G12V limits assumed): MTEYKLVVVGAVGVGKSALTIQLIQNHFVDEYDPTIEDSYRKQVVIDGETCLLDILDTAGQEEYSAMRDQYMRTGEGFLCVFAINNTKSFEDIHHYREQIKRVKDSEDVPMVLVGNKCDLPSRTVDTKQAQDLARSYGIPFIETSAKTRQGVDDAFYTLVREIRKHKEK
- Sequence (P62937 whole entry): as the sequence (P62937 whole entry) above
- test_details: Disruption of BRAF RBD interaction with Ras (FRET / MOA assay, with Cyclophilin A)
- Format: biochemical
- condition_summary: KRAS G12V; read-out: KRAS G12V FRET data IC50
In this section we review reported IC50 values for a set of molecules.

| molecule | IC50 |
| --- | --- |
| C=CC(=O)N1CC[C@H](C(=O)N(C)[C@H](C(=O)N[C@H]2Cc3cc(O)cc(c3)-c3ccc4c(c3)c(c(-c3cnccc3[C@H](C)OC)n4CC)CC(C)(C)COC(=O)[C@@H]3CCCN(N3)C2=O)C(C)C)C1 | 10 to 100 nM |
| CCn1c(-c2cccnc2[C@H](C)OC)c2c3cc(ccc31)-c1cc(O)cc(c1)C[C@H](NC(=O)[C@H](C(C)C)N(C)C(=O)C1CC3CC1CN3)C(=O)N1CCC[C@H](N1)C(=O)OCC(C)(C)C2 (some centres unmarked) | 1000 to 10000 nM |

====

A collection of compounds and their measured IC50
- tested_system: KRAS G12C (Homo sapiens, UniProt P01116+P62937, G12C)
- Sequence (P01116 1-169 isoform P01116-2 G12C): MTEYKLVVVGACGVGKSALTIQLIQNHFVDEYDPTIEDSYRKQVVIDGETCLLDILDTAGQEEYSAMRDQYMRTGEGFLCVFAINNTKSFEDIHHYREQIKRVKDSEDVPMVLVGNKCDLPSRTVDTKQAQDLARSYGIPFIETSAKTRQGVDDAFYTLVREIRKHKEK
- Sequence (P62937 whole entry): as the sequence (P62937 whole entry) above
- test_details: Disruption of BRAF RBD interaction with Ras (FRET / MOA assay, with Cyclophilin A)
- Format: biochemical
- condition_summary: KRAS G12C; read-out: KRAS G12C FRET data IC50
- Excerpt: This protocol may also be executed substituting other Ras proteins or nucleotides. The purpose of this biochemical assay was to measure the ability of test compounds to facilitate ternary complex formation between a nucleotide-loaded K-Ras isoform and Cyclophilin A; the resulting ternary complex disrupts binding to a BRAF^RBD construct, inhibiting K-Ras signaling through a RAF effector. Data is reported as IC50 values. […]
value_kind: IC50

| compound | value_kind | result |
| --- | --- | --- |
| C=CC(=O)N1CC[C@H](C(=O)N(C)[C@H](C(=O)N[C@H]2Cc3nc(cs3)-c3ccc4c(c3)c(c(-c3cccnc3[C@H](C)OC)n4CC)CC(C)(C)CN(C)C[C@@H]3CCCN(N3)C2=O)C(C)C)C1 | IC50 | > 10000 nM |
| C=CC(=O)N1CC[C@H](C(=O)N(C)[C@H](C(=O)N[C@H]2Cc3cc(O)cc(c3)-c3ccc4c(c3)c(c(-c3ccccc3N3CCOCC3)n4CC)CC(C)(C)COC(=O)[C@@H]3CCCN(N3)C2=O)C(C)C)C1 | IC50 | 100 to 1000 nM |
| C=CC(=O)N1CCCN(C(=O)N(C)[C@H](C(=O)N[C@H]2Cc3cc(O)cc(c3)-c3ccc4c(c3)c(c(-c3ccccc3CCOC)n4CC)CC(C)(C)COC(=O)[C@@H]3CCCN(N3)C2=O)C(C)C)CC1 | IC50 | 100 to 1000 nM |
| C=CC(=O)N1CC[C@H](C(=O)N(C)[C@H](C(=O)N[C@H]2Cc3cc(O)cc(c3)-c3ccc4c(c3)c(c(-c3ccccc3[C@H](C)OC)n4CC)CC(C)(C)COC(=O)[C@@H]3CCCN(N3)C2=O)C(C)C)C1 | IC50 | 10 to 100 nM |
| C=CS(=O)(=O)N1CC[C@H](C(=O)N(C)[C@H](C(=O)N[C@H]2Cc3cccc(c3)-c3ccc4c(c3)c(c(-c3cncnc3)n4CC)CC(C)(C)COC(=O)[C@@H]3CCCN(N3)C2=O)C(C)C)C1 | IC50 | 1000 to 10000 nM |
| C=CC(=O)N1CC[C@@]2(CCN2C(=O)N(C)[C@H](C(=O)N[C@H]2Cc3nc(cs3)-c3ccc4c(c3)c(c(-c3cccnc3[C@H](C)OC)n4CC)CC(C)(C)COC(=O)C3CCCN(N3)C2=O)N(C)C)C1 (single isomer, unassigned) | IC50 | 10 to 100 nM |
| C=CC(=O)N1CC[C@H](C(=O)N(C)[C@H](C(=O)N[C@H]2Cc3cc(O)cc(c3)-c3ccc4c(c3)c(c(-c3ccc(CN(C)C)cc3)n4CC)CC(C)(C)COC(=O)[C@@H]3CCCN(N3)C2=O)C(C)C)C1 | IC50 | 100 to 1000 nM |
| C=CC(=O)N1CC[C@H](C(=O)N(C)[C@H](C(=O)N[C@H]2Cc3cc(O)cc(c3)-c3ccc4c(c3)c(c(-c3cncc(CCN(C)C)c3)n4CC)CC(C)(C)COC(=O)[C@@H]3CCCN(N3)C2=O)C(C)C)C1 | IC50 | 100 to 1000 nM |
| CCn1c(-c2cccnc2[C@H](C)OC)c2c3cc(ccc31)-c1cccc(c1)C[C@H](NC(=O)[C@H](C(C)C)N1CC[C@]3(CCN(C(=O)C#C[C@@H]4COCCN4C4COC4)C3)C1=O)C(=O)N1CCC[C@H](N1)C(=O)OCC(C)(C)C2 | IC50 | 100 to 1000 nM |
